- experimental system: UniProt:P46093
- Sequence (P46093 whole entry): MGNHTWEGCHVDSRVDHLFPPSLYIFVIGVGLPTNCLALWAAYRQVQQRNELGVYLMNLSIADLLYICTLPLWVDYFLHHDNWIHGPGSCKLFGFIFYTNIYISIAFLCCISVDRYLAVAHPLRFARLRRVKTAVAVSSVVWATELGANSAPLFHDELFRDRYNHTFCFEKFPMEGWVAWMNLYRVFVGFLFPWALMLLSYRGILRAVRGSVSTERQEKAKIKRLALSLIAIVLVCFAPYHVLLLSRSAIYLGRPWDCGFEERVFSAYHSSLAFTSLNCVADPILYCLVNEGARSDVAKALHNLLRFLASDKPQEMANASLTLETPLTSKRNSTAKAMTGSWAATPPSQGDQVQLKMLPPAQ
- assay name: Cell-based assay for human GPR4 activity (pH-induced cAMP formation, HTRF)
- condition info: HeLa cells stably expressing human GPR4, pH-induced cAMP formation
Where a name gives a salt, the structure may show the parent alone.
For each record, write down the corresponding IC50.

CCc1nc2c(C)cc(C)nc2n1Cc1ccc(/C=C/CN2CCN(CC3CCC3)CC2)cc1 [Example 55, dihydrochloride] has a reported IC50 of 86 nM

CCc1nc2c(C)cc(C)nc2n1Cc1ccc(/C=C/CN2CCC(OCC(=O)NC)CC2)cc1 [Example 38] has a reported IC50 of 718 nM

CCc1nc2c(C)cc(C)nc2n1Cc1ccc(/C=C/CN2[C@@H]3CC[C@H]2CC(n2cnc4ccccc42)C3)cc1 (stereo partly drawn) [Example 41, hydrochloride] has a reported IC50 of 799 nM
